Reference source for all entries: the RNAGym collection of RNA variant scans (doi:10.7554/elife.90254)

Attribute: self-cleavage
B1: LINE1-full (parent)
chain: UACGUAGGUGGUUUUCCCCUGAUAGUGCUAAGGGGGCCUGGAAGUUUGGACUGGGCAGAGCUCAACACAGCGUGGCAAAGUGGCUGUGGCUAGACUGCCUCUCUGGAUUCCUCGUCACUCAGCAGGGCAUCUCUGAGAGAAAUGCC

variants of: B1; test: self-cleavage, relative activity (ratio to wild type); higher = more cleavage; in vitro, sequencing; the parent is a self-cleaving ribozyme
Respond using a number only.

Reference set, count: 4
sequence.code | self-cleavage
UACGUAGGUGGUUUUCCCCUGAUAGCGCUAAGGGGGCCUGGAAGUUUGGACUGGGCAGAGCUCAACACAGCGUGGCAAAGUGGCUGUGGCUAGACUGCCUUUCUGGAUUCCUCGUCACUCAGCAGGGCAUCUCUGAGAGAAAUGCC | 1.46
AACGUAGGUGGUUUUCCCCUGAUAGUGCUAAGGGGGCCUAGAAGUUUGGACUGGGCAGAGCUCAACACAGCGUGGCAAAGUGGCUGUGGCUAGACUGCCUCUCUGGAUUCCUCGUCACUCAGCAGGGCAUCUCUGAGAGAAAUGCC | 1.26
UACGUAGGUGGUUUUCCCCUGAUAGUGCUAUAGGGGCCUGGAAGUUUGGACUGGGCAGAGCUCAACACAGCGUGGCAAAGUGGCUGUGGCUAGACUGCCUCUCUGGAUUCCUCGUCACUCAGCAGGGCAUCUCUGAGAGAAAUGCC | 1.56
UACGUAGGUGGUUUUCCCCUGAUAGUGCUAAGGGGGCCUGGAAGUUUGGACUGGGCAGAGCUCAACACAGCGUGGCAAAGUGGCUGUGGCCUGACUGCCUCUCUGGAUUCCUCGUCACUCAGCAGGGCAUCUCUGAGAGAAAUGCC | 0.23

Query: Specify reported self-cleavage for the variant shown: UACGUAGGUGGUUUUCCCCUGAUAGUGCUAAGGGGGCCCGGAAGUUUGGACUGGGCAGAGCUCAACACAGCGUGGCAAAGUGGCUGUGGCUAGACUGCCUCUCUGGAUUCCUUGUCACUCAGCAGGGCAUCUCUGAGAGAAAUGCC
Result: 1.26

Query: Specify reported self-cleavage for the variant shown: UACGUAGGUGGUUUUCCCCUGAUAGUGCUAAGGGGGCCUGGAAGUUUGGACUGGGCAGAGCUCAACACUGCGUGGCAAAGUGGCUGUGGCUAGACUGCCUCUCUGGAUUCCUCGUCACUCAGCAGGGCAGCUCUGAGAGAAAUGCC
Result: 0.09

Query: Specify reported self-cleavage for the variant shown: UACGUAGGUGGUUUUCCCCUGAUAGUGCUAAGGUGGCCUGGAAGUUUAGACUGGGCAGAGCUCAACACAGCGUGGCAAAGUGGCUGUGGCUAGACUGCCUCUCUGGAUUCCUCGUCACUCAGCAGGGCAUCUCUGAGAGAAAUGCC
Result: 1.49

Query: Specify reported self-cleavage for the variant shown: UACGUAGGUGGUUUUCCCCUGAUAGUGCUAAGGGGGCCUGGAAGUUUGGACUGGGCAGAGCUCAACACAGCGUGGCAAAGUGGCUGUGGCUAUACUGCCUCUCUGGAUUCCUCGUCACUCCGCAGGGCAUCUCUGAGAGAAAUGCC
Result: 0.03

Query: Specify reported self-cleavage for the variant shown: UACGUGGGUGGUUUUCCCCUGAUAGUGCUAAGGGGGCCUGGAAGUUUGGACUGGGCAGAGCUCAACACAGCGUGGCAAAGAGGCUGUGGCUAGACUGCCUCUCUGGAUUCCUCGUCACUCAGCAGGGCAUCUCUGAGAGAAAUGCC
Result: 1.47

Query: Specify reported self-cleavage for the variant shown: UACGUAGGUGGUUUUCCCCUGAUAGGGCUAAGGGGGCCUGGAAGUUUGGACUGGGCAGAGCUCAACACAGCGUGGCAAAGUGGCUGUGGCUAGACUGCCUCUCUGGAUUCCUCGUCACUCAGCAGGGCAUCUCUGAGAAAAAUGCC
Result: 1.47

Query: Specify reported self-cleavage for the variant shown: UACGUGGGUGGUUUUCCCCUGAUAGUGCUAAGGGGGCCUGGAAGUUUGGACUGGGCAGAGCUCAACACAGCGUGGCAAAGUGGCUGUGGCUAGACCGCCUCUCUGGAUUCCUCGUCACUCAGCAGGGCAUCUCUGAGAGAAAUGCC
Result: 0.41
